Target: CDK1-NanoLuc fusion with CCNB1 in 293T or 293 cells (Homo sapiens, UniProt P06493)
Construct: host or cells: 293T (ATCC CRL-3216) or 293 (ATCC CRL-1573)
Sequence (P06493 whole entry, the tested form may be a part): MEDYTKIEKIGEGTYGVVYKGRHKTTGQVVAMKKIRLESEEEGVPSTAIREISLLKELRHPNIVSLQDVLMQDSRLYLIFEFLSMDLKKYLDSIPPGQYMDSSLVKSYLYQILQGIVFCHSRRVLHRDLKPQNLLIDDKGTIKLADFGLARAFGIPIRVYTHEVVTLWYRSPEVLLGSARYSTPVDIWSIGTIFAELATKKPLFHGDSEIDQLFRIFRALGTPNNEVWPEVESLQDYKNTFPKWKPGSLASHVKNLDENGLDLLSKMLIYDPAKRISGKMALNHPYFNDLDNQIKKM
Sequence (P14635 whole entry partner, the tested form may be a part): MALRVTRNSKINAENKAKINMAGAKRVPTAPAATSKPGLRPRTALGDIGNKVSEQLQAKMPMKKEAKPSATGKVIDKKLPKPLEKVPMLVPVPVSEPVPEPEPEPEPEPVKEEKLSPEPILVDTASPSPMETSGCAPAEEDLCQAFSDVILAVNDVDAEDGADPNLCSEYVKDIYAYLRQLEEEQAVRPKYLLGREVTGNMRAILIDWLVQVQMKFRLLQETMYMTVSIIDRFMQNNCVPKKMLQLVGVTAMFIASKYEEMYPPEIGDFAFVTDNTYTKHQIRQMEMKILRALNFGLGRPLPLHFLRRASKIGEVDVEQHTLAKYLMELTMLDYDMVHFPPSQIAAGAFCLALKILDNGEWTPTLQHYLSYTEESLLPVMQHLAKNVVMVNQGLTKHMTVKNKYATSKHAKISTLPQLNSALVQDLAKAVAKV
Test: NanoBRET Target Engagement (TE) Intracellular Kinase Assay, CDK1/CCNB1
Assay type: cell-based
Settings: NanoBRET TE intracellular kinase assay, 2-hour incubation, read-out: NanoBRET-CDK1/B1 IC50
pIC50: −log10 of the molar value.

smiles: COc1ccc(OCC(=O)Nc2cc([C@H]3CC[C@@H](OC(=O)NC(C)C)C3)[nH]n2)c(C=O)c1O
pIC50: 7.43

smiles: CC(C)(C)NC(=O)O[C@@H]1CC[C@H](c2cc(NC(=O)COc3cccc(O)c3C=O)n[nH]2)C1
pIC50: 7.82

smiles: CC(C)NC(=O)O[C@@H]1CC[C@H](c2cc(NC(=O)Cc3cnc(-c4cccc(O)c4C=O)s3)n[nH]2)C1
pIC50: 7.45

smiles: C#Cc1cccc(-c2cc(C(=O)Nc3cc([C@H]4CC[C@@H](OC(=O)NC(C)C)C4)[nH]n3)n(C)n2)c1C=O
pIC50: 6.42

smiles: COc1cc(O)c(C=O)c(OCC(=O)Nc2cc([C@H]3CC[C@@H](OC(=O)N4CCOCC4)C3)[nH]n2)c1
pIC50: 7.68

smiles: C#Cc1cccc(OCC(=O)Nc2cc([C@H]3CC[C@@H](OC(=O)NC(C)C)C3)[nH]n2)c1C=O
pIC50: 6.45

smiles: C#CCNC(=O)O[C@@H]1CC[C@H](c2cc(NC(=O)COc3cc(OC)cc(O)c3C=O)n[nH]2)C1
pIC50: 7.74

====

Biological target: CDK2-NanoLuc fusion with CCNE1 in 293T or 293 cells (Homo sapiens)
Construct: host or cells: 293T (ATCC CRL-3216) or 293 (ATCC CRL-1573)
Assay: NanoBRET Target Engagement (TE) Intracellular Kinase Assay, CDK2/CCNE1
Format: cell-based
Conditions: NanoBRET TE intracellular kinase assay, 2-hour incubation, read-out: NanoBRET-CDK2/E1 IC50
pIC50: −log10 of the molar value.
measurement.label: pIC50

compound: COc1cc(O)c(C=O)c(OCC(=O)Nc2cc([C@H]3CC[C@@H](OC(=O)NC4CN(C)C4)C3)[nH]n2)c1 [Compound 185]
recorded.value: 6.35
//
compound: COc1cc(O)c(C=O)c(OCC(=O)Nc2cc([C@H]3CC[C@@H](OC(=O)NC4(C)CC4)C3)[nH]n2)c1 [Compound 251]
recorded.value: 8.91
//
compound: COc1cc(O)c(C=O)c(OCC(=O)Nc2cc([C@H]3CC[C@@H](OC(=O)NCc4ccccn4)C3)[nH]n2)c1 [Compound 166]
recorded.value: 7.99
//
compound: COc1cc(O)c(C=O)c(OCC(=O)Nc2cc([C@H]3CC[C@@H](OC(=O)NC(C)(C)C#N)C3)[nH]n2)c1 [Compound 159]
recorded.value: 7.97
//
compound: COc1cc(O)c(C=O)c(OCC(=O)Nc2cc([C@H]3CC[C@@H](OC(=O)NCCCC#N)C3)[nH]n2)c1 [Compound 156]
recorded.value: 8.00
//
compound: COc1cc(O)c(C=O)c(OCC(=O)Nc2cc([C@H]3C[C@@H](OC(=O)N4C5COCC4C5)C3)[nH]n2)c1 [Compound 111]
recorded.value: 8.26
//
compound: CNN(C)C(=O)O[C@@H]1CC[C@H](c2cc(NC(=O)COc3cc(OC)cc(O)c3C=O)n[nH]2)C1 [Compound 279]
recorded.value: 8.36

Values from patent US20250289789A1
